System: A549 cell line
method: MTT cytotoxicity assay
Type: cell-based
condition notes: A549, 48h, 50 µM, Repeat No 2
Protocol: Among all the newly synthesized compounds, four compounds designated as: 14, 20, 21 and 27 were selected for further testing of their cytotoxic properties at the doses of 10, 25, 50, 75 and 100 µM. […] The cell viability of tested compounds (14, 20, 21 and 27) was assessed by the MTT assay. […] The color absorbance was recorded at 570 nm using a BioTek model EPOCH ELISA plate reader. […] The absorbance values were in the range of linearity of the Lambert–Beer law.
property name: cell proliferation (%)
Supply the numeric figure in %, leaving out any unit text.

What does the record list as cell proliferation for O=C(N/N=C/c1cc(Cl)cc(I)c1O)c1cccc(I)c1 ? 92

Which measured cell proliferation value corresponds to O=C(N/N=C/c1cc(I)cc(I)c1O)c1ccccc1I ? 83

Can you look up the measured cell proliferation of O=C(N/N=C/c1cc(Br)cc(Br)c1O)c1cccc(I)c1 for me? 91

Could you share which cell proliferation value was measured for O=C(N/N=C/c1cc(Cl)cc(I)c1O)c1ccc(I)cc1 ? 89

====

cell proliferation for assorted compounds
System: A549 cell line
method: MTT cytotoxicity assay
Assay type: cell-based
condition notes: A549, 24h, 100 µM, Repeat No 1
Only the number, expressed in %, is required.

Example results:
O=C(N/N=C/c1cc(Cl)cc(I)c1O)c1cccc(I)c1 : 90
O=C(N/N=C/c1cc(I)cc(I)c1O)c1ccccc1I : 82
O=C(N/N=C/c1cc(Cl)cc(I)c1O)c1ccc(I)cc1 : 109

Fill in: cell proliferation of O=C(N/N=C/c1cc(Br)cc(Br)c1O)c1cccc(I)c1 is ___ 87

====

Tested on: Gram-positive bacteria
method: Broth microdilution, summary over reference Gram-positive bacteria
Format: cell-based
condition notes: reference Gram-positive bacteria / studied bacteria
property name: antibacterial activity in words

Examples with answers:
CCOc1cccc(/C=N/NC(=O)c2ccccc2I)c1O [Compound 10] : no antimicrobial effect
O=C(N/N=C/c1ccccc1O)c1cccc(I)c1 [Compound 16] : no activity
O=C(N/N=C/c1cc(O)ccc1O)c1ccccc1I [Compound 11] : no antimicrobial effect
O=C(N/N=C/c1cccc([N+](=O)[O-])c1O)c1ccc(I)cc1 [Compound 22] : No antimicrobial effect
O=C(N/N=C/c1cc(O)ccc1O)c1cccc(I)c1 [Compound 19] : no activity

Turning now to a further record.
Give its antibacterial activity in words value. Item: O=C(N/N=C/c1cc(Br)cc(Br)c1O)c1ccc(I)cc1 [Compound 28] No antimicrobial effect

====

System: T47D cell line
method: MTT cytotoxicity assay
Assay type: cell-based
condition notes: 24h, 100 µM, Repeat No 2
property name: cell proliferation (%)
Respond numerically; units are % and should not be typed.

Observe how each entry below is paired with its result.
O=C(N/N=C/c1cc(Cl)cc(I)c1O)c1cccc(I)c1 : 82
O=C(N/N=C/c1cc(I)cc(I)c1O)c1ccccc1I : 73
O=C(N/N=C/c1cc(Cl)cc(I)c1O)c1ccc(I)cc1 : 91

// next item, cell proliferation requested
So what does the record say about cell proliferation for O=C(N/N=C/c1cc(Br)cc(Br)c1O)c1cccc(I)c1 ? 78

====

Each entry below carries its reported MBC.
System: Bacillus cereus ATCC 10876
method: Broth microdilution MIC/MBC
condition notes: Bacillus cereus, ATCC10876

Worked set:
O=C(N/N=C/c1ccccc1O)c1ccc(I)cc1 : > 1000 µg/mL
O=C(N/N=C/c1cc(Cl)cc(I)c1O)c1ccccc1I : > 1000 µg/mL
O=C(N/N=C/c1cc(Cl)cc(Cl)c1O)c1cccc(I)c1 : 15.6 µg/mL
O=C(N/N=C/c1cccc([N+](=O)[O-])c1O)c1cccc(I)c1 : 250 µg/mL
O=C1CN(/N=C/c2ccc([N+](=O)[O-])o2)C(=O)N1 [NIT, nitrofurantoin, reference compound] : 15.6 µg/mL
O=C(N/N=C/c1cc(Cl)cc(I)c1O)c1cccc(I)c1 : 31.2 µg/mL

State the recorded MBC for this entry: O=C(N/N=C/c1cc(Br)cc(Br)c1O)c1cccc(I)c1 62.5 µg/mL

Query: MBC; subject: O=C(N/N=C/c1cc(I)cc(I)c1O)c1ccccc1I 250 µg/mL

Requested read-out: MBC. Entry: O=C(N/N=C/c1cc(Cl)cc(I)c1O)c1ccc(I)cc1 250 µg/mL

====

method: MTT cytotoxicity assay
Format: cell-based, mouse
condition notes: mouse, L929 fibroblast cells; L929, 48 h culture, dose of 25 μM; read-out: increased viability
property name: viability at 48 h, 25 µM

Endpoint output: viability at 48 h, 25 µM of O=C(N/N=C/c1cc(I)cc(I)c1O)c1ccccc1I . Value? > 100%

====

Tested on: HeLa cell line
method: MTT cytotoxicity assay
Type: cell-based
condition notes: 24h, 100 µM, Repeat No 1
Listed below: cell proliferation values for each entry.
Enter your answer as a number in %; do not include the unit.

Study these solved cases before continuing.
O=C(N/N=C/c1cc(Cl)cc(I)c1O)c1ccc(I)cc1 [Compound 27] : 63
O=C(N/N=C/c1cc(Cl)cc(I)c1O)c1cccc(I)c1 [Compound 20] : 81
O=C(N/N=C/c1cc(Br)cc(Br)c1O)c1cccc(I)c1 [Compound 21] : 87

Read the next record carefully.
Item under review: O=C(N/N=C/c1cc(I)cc(I)c1O)c1ccccc1I [Compound 14] . Reported cell proliferation? 82

====

Tested on: Bacillus subtilis ATCC 6633
method: Broth microdilution MIC/MBC
condition notes: ATCC6633
property name: MIC (µg/mL)
Provide the reading as a plain figure in µg/mL.

Example compounds with recorded MIC:
CCOc1cccc(/C=N/NC(=O)c2cccc(I)c2)c1O [Compound 18] : 62.5
O=C(N/N=C/c1cc(Br)cc(Br)c1O)c1cccc(I)c1 [Compound 21] : 7.81
O=C(N/N=C/c1cc(Cl)cc(Cl)c1O)c1ccc(I)cc1 [Compound 24] : 500

Would you kindly share the measured MIC for O=C(N/N=C/c1cccc([N+](=O)[O-])c1O)c1cccc(I)c1 [Compound 15] ? 125

Which value of MIC has been reported for O=C1CN(/N=C/c2ccc([N+](=O)[O-])o2)C(=O)N1 [NIT, nitrofurantoin, reference compound] in the records? 3.91

Fill in the blank: the reported MIC of O=C(N/N=C/c1ccccc1O)c1ccc(I)cc1 [Compound 23] is ____. 1000

Dear colleague, I am looking for the recorded MIC of the following compound: NNC(=O)c1ccc(I)cc1 [Compound 6, 4-iodobenzohydrazide] 1000

# get_value(readout='MIC', item= CC1(C)S[C@@H]2[C@H](NC(=O)[C@H](N)c3ccccc3)C(=O)N2[C@H]1C(=O)O [APC, ampicillin, reference compound] ) 62.5

Can you share its MIC? I mean this compound: CO/N=C(\C(=O)N[C@@H]1C(=O)N2C(C(=O)O)=C(COC(N)=O)CS[C@H]12)c1ccco1 [CFX, cefuroxime, reference compound] 15.6

Given the compound O=C(N/N=C/c1cc(I)cc(I)c1O)c1ccccc1I [Compound 14] , what is its reported MIC? 500

====

Quick reference for cell proliferation among some compounds
System: L929 cell line
method: MTT cytotoxicity assay
Type: cell-based, mouse
condition notes: L929, 48h, 10 µM, Repeat No 1

Please review the following examples before continuing.
O=C(N/N=C/c1cc(Cl)cc(I)c1O)c1ccc(I)cc1 [Compound 27] : 92%
O=C(N/N=C/c1cc(Cl)cc(I)c1O)c1cccc(I)c1 [Compound 20] : 91%
O=C(N/N=C/c1cc(I)cc(I)c1O)c1ccccc1I [Compound 14] : 75%

Query (compound): O=C(N/N=C/c1cc(Br)cc(Br)c1O)c1cccc(I)c1 [Compound 21] ; field requested: cell proliferation 94%

====

Entries annotated with measured cell proliferation
Test system: L929 cell line
method: MTT cytotoxicity assay
Format: cell-based, mouse
condition notes: L929, 24h, 10 µM, Repeat No 1
# number then unit; no other words

O=C(N/N=C/c1cc(Cl)cc(I)c1O)c1ccc(I)cc1 : 101%
O=C(N/N=C/c1cc(Cl)cc(I)c1O)c1cccc(I)c1 : 99%
O=C(N/N=C/c1cc(I)cc(I)c1O)c1ccccc1I : 94%

Now for the compound whose cell proliferation we want.
Could you share which cell proliferation value was measured for O=C(N/N=C/c1cc(Br)cc(Br)c1O)c1cccc(I)c1 ? 96%

====

System: L929 cell line
method: MTT cytotoxicity assay
Format: cell-based, mouse
condition notes: L929, 48h, 100 µM, Repeat No 1
Item-by-item account of cell proliferation
Be sure to follow the number with its unit.

O=C(N/N=C/c1cc(Cl)cc(I)c1O)c1ccc(I)cc1 [Compound 27] : 87%
O=C(N/N=C/c1cc(I)cc(I)c1O)c1ccccc1I [Compound 14] : 94%
O=C(N/N=C/c1cc(Cl)cc(I)c1O)c1cccc(I)c1 [Compound 20] : 87%

// cell proliferation lookup, key: O=C(N/N=C/c1cc(Br)cc(Br)c1O)c1cccc(I)c1 [Compound 21] 89%
